experimentNotes: molar heat capacity at constant pressure
conditionContext: 293.15 K; 101.33 kPa; Liquid; Small sample (50 mg) DSC
valueType: molar heat capacity at constant pressure (J/K/mol)

> print(dat)
                                   compound    units  recordednumber
1  CCn1cc[n+](C)c1.COS(=O)(=O)[O-] [1-ethyl-3-methylimidazolium methylsulfate]  J/K/mol             330
2  CCn1cc[n+](C)c1.CS(=O)(=O)[O-] [1-ethyl-3-methylimidazolium methanesulfonate]  J/K/mol             327
3  CCCC[P+](CC)(CCCC)CCCC.CCOP(=O)([O-])OCC [tributylethylphosphonium diethylphosphate]  J/K/mol             706
4  CCOP(=O)([O-])OCC.CCn1cc[n+](C)c1 [1-ethyl-3-methylimidazolium diethyl phosphate]  J/K/mol             528
5  CCCCCCn1cc[n+](C)c1.O=S(=O)([O-])C(F)(F)F [1-hexyl-3-methylimidazolium trifluoromethanesulfonate]  J/K/mol             493
6  CCn1cc[n+](C)c1.N#C[S-] [1-ethyl-3-methylimidazolium thiocyanate]  J/K/mol             287
7  CCn1cc[n+](C)c1.O=S(=O)([O-])O [1-ethyl-3-methylimidazolium hydrogen sulfate]  J/K/mol             294
8        C[n+]1ccn(CCO)c1.O=C([O-])C(F)(F)F  J/K/mol             367

###

experimentNotes: molar heat capacity at constant pressure
conditionContext: 283.15 K; 101.33 kPa; Liquid; Small sample (50 mg) DSC
Reported molar heat capacity at constant pressure values for a set of compounds
valueType: molar heat capacity at constant pressure (J/K/mol)

> print(dat)
                                   compound    units  recordednumber
1        C[n+]1ccn(CCO)c1.O=C([O-])C(F)(F)F  J/K/mol             362
2  CCn1cc[n+](C)c1.O=S(=O)([O-])O [1-ethyl-3-methylimidazolium hydrogen sulfate]  J/K/mol             290
3  CCn1cc[n+](C)c1.N#C[S-] [1-ethyl-3-methylimidazolium thiocyanate]  J/K/mol             285
4  CCOP(=O)([O-])OCC.CCn1cc[n+](C)c1 [1-ethyl-3-methylimidazolium diethyl phosphate]  J/K/mol             517
5  CCn1cc[n+](C)c1.CS(=O)(=O)[O-] [1-ethyl-3-methylimidazolium methanesulfonate]  J/K/mol             327
6  CCn1cc[n+](C)c1.COS(=O)(=O)[O-] [1-ethyl-3-methylimidazolium methylsulfate]  J/K/mol             324
7  CCCCCCn1cc[n+](C)c1.O=S(=O)([O-])C(F)(F)F [1-hexyl-3-methylimidazolium trifluoromethanesulfonate]  J/K/mol             484
8  CCCC[P+](CC)(CCCC)CCCC.CCOP(=O)([O-])OCC [tributylethylphosphonium diethylphosphate]  J/K/mol             683

###

Reported molar heat capacity at constant pressure values for a set of compounds
experimentNotes: molar heat capacity at constant pressure
conditionContext: 313.15 K; 101.33 kPa; Liquid; Small sample (50 mg) DSC
Numbers after ± are expanded uncertainties.
valueType: molar heat capacity at constant pressure

> print(dat)
                                   compound            result
1  CCOP(=O)([O-])OCC.CCn1cc[n+](C)c1 [1-ethyl-3-methylimidazolium diethyl phosphate]  540 ± 44 J/K/mol
2  CCCC[P+](CC)(CCCC)CCCC.CCOP(=O)([O-])OCC [tributylethylphosphonium diethylphosphate]  728 ± 59 J/K/mol
3  CCn1cc[n+](C)c1.COS(=O)(=O)[O-] [1-ethyl-3-methylimidazolium methylsulfate]  337 ± 27 J/K/mol
4        C[n+]1ccn(CCO)c1.O=C([O-])C(F)(F)F  376 ± 31 J/K/mol
